// IC50 lookup, one value per entry
target.desc: Mannheimia haemolytica leukotoxin (Lkt) (Mannheimia haemolytica, UniProt P16535)
protocol.details: cell-based
settings: IC50 (uM) aa 5-17
Where no end group is shown, it is not given here.
Express it in µM; write the number only.

Example cases with answers are listed next.
Inquiry: Any idea what its IC50 is? The sequence is RPQLLLLAGLLSL [Water Buffalo R5S16]
Reply text: 13.9

Inquiry: Any idea what its IC50 is? The sequence is RPQLLFLSGLLAL [Sheep R5F10S12]
Reply text: 16.1

Inquiry: Any idea what its IC50 is? The sequence is CPQVLLLAGLLGL [Eland C5V8G16]
Reply text: 0.5

# ---- query sequence ----
Inquiry: Any idea what its IC50 is? The sequence is RPQLLLLAGLLAL [R5]
Reply text: 12.1

* * *

target.desc: Mannheimia haemolytica leukotoxin (Lkt) (Mannheimia haemolytica)
protocol.details: cell-based
settings: IC50 (μM)
Where no end group is shown, it is not given here.
measure: log10 of IC50 (log10 of the value in µM)
Form field - Quantity: IC50; Unit: µM; Scale: log10

Example cases with answers are listed next.
Inquiry: Any idea what its log10 of IC50 is? The substance is CPQLLLLAGLL [(B) 5-15]
Reply text: 0.45

Inquiry: Any idea what its log10 of IC50 is? The substance is RPQLLLLAGLLA [(A) 5-16]
Reply text: 1.26

Inquiry: Any idea what its log10 of IC50 is? The substance is RPQLLLLAGLL [(A) 5-15]
Reply text: 1.42

Inquiry: Any idea what its log10 of IC50 is? The substance is MLRQCPQLLLLAGLLALQSVLS [R3C5]
Reply text: 0.83

Inquiry: Any idea what its log10 of IC50 is? The substance is CPQLLLLAGL [(B) 5-14]
Reply text: 0.83

# ---- query substance ----
Inquiry: Any idea what its log10 of IC50 is? The substance is CPQLLLLAG [(B) 5-13]
Reply text: 1.44

* * *

// IC50 lookup, one value per entry
target.desc: Mannheimia haemolytica leukotoxin (Lkt) (Mannheimia haemolytica, UniProt P16535)
protocol.details: cell-based
settings: IC50 (uM) aa 4-17
Where no end group is shown, it is not given here.
Express it in µM; write the number only.

Example cases with answers are listed next.
Inquiry: Any idea what its IC50 is? The sequence is RCPQLLLLAGLLAL [Cattle R4C5]
Reply text: 14.5

Inquiry: Any idea what its IC50 is? The sequence is QCPQLLLLAGLLAL [Cattle Q4C5]
Reply text: 2.6

Inquiry: Any idea what its IC50 is? The sequence is QCPQVLLLAGLLGL [Eland Q4C5V8G16]
Reply text: 1.6

# ---- query sequence ----
Inquiry: Any idea what its IC50 is? The sequence is RCPQVLLLAGLLGL [Eland R4C5V8G16]
Reply text: 33.3

* * *

target.desc: Mannheimia haemolytica leukotoxin (Lkt) (Mannheimia haemolytica, UniProt P16535)
protocol.details: cell-based
settings: IC50 (μM)
Where no end group is shown, it is not given here.
// IC50 lookup, one value per entry
Express it in µM; write the number only.

Inquiry: Provide value of IC50 for this record tested with Mannheimia haemolytica leukotoxin (Lkt) (Mannheimia haemolytica, UniProt P16535): RPQLLLLAGL [(A) 5-14]
Reply text: 23.1

Inquiry: Provide value of IC50 for this record tested with Mannheimia haemolytica leukotoxin (Lkt) (Mannheimia haemolytica, UniProt P16535): MLRQRPQLLLLAGLLALQSVLS [R3R5]
Reply text: 12.7

Inquiry: Provide value of IC50 for this record tested with Mannheimia haemolytica leukotoxin (Lkt) (Mannheimia haemolytica, UniProt P16535): RPQLLLLAGLLAL [R5]
Reply text: 13.7

Inquiry: Provide value of IC50 for this record tested with Mannheimia haemolytica leukotoxin (Lkt) (Mannheimia haemolytica, UniProt P16535): CPQLLLL [(B) 5-11]
Reply text: 56.2

Inquiry: Provide value of IC50 for this record tested with Mannheimia haemolytica leukotoxin (Lkt) (Mannheimia haemolytica, UniProt P16535): CPQLLLLAGLLA [(B) 5-16]
Reply text: 0.6

Inquiry: Provide value of IC50 for this record tested with Mannheimia haemolytica leukotoxin (Lkt) (Mannheimia haemolytica, UniProt P16535): RPQLLLLAG [(A) 5-13]
Reply text: 75

Inquiry: Provide value of IC50 for this record tested with Mannheimia haemolytica leukotoxin (Lkt) (Mannheimia haemolytica, UniProt P16535): CPQLLLLAGLLAL [C5]
Reply text: 1.5

Inquiry: Provide value of IC50 for this record tested with Mannheimia haemolytica leukotoxin (Lkt) (Mannheimia haemolytica, UniProt P16535): RPQLLLLA [(A) 5-12]
Reply text: 81.8

Inquiry: Provide value of IC50 for this record tested with Mannheimia haemolytica leukotoxin (Lkt) (Mannheimia haemolytica, UniProt P16535): RPQLLLL [(A) 5-11]
Reply text: 64.8

Inquiry: Provide value of IC50 for this record tested with Mannheimia haemolytica leukotoxin (Lkt) (Mannheimia haemolytica, UniProt P16535): CPQLLLLA [(B) 5-12]
Reply text: 51.5

Hey, just so you know, these numbers are from paper PMC6406179.
